These entries and their values trace back to PubChem BioAssay (NCI).

# Test system: HT29 colon
# ASSAY_REMARKS: NCI-60 one-dose screen, 48 h (100 = growth as untreated, 0 = no growth, -100 = all killed)
# CONDITION_PARAMETERS: 10 µM unless noted
# Procedure: Growth inhibition of the HT29 human tumor cell line is measured as a screen for anti-cancer activity. Cells are grown in 96 well plates and exposed to the test compound for 48 hours. Compounds are tested at a single concentration, which is 10^-5 M for most compounds. The reported endpoint is percent growth (GI% or GIPRCNT), where numbers from 0 - 100% represent growth inhibition, and numbers from -100% - 0 represent cell death. For example, a value of 40 represents 60% growth inhibition. […]
About 83,000 compounds went through this panel and 20% of them were active in at least one assay; those are over-represented in the sample as a whole.
Readings of growth for the listed molecules

>  <MOLECULE>
O=c1cc(-c2ccccc2)nc2sc(-c3c[nH]c4ccc(F)cc34)nn12

>  <growth, %>
73.2

$$$$
>  <MOLECULE>
COc1ccc(Cn2cc3c(c2-c2ccccc2)CCCc2cnoc2-3)cc1[N+](=O)[O-]

>  <growth, %>
40.8

$$$$
>  <MOLECULE>
C=CCn1c(SCC(=O)c2ccc(OC)cc2)nnc1-c1ccc(OC)cc1

>  <growth, %>
108

$$$$
>  <MOLECULE>
COc1ccc([C@@H]2[C@@H](O)C(=O)N2c2cc(OC)c(OC)c(OC)c2)cc1

>  <growth, %>
1.28

$$$$
>  <MOLECULE>
Cc1nn(-c2ccc(Br)cc2)c2nc(CCl)[nH]c(=O)c12

>  <growth, %>
104

$$$$
>  <MOLECULE>
Cc1cc(=O)n2nc(-c3c[nH]c4ccccc34)sc2n1

>  <growth, %>
107

$$$$
>  <MOLECULE>
CCCC(=O)NC(c1cccnc1)c1ccc2c(C)ccnc2c1O (stereo unspecified)

>  <growth, %>
20.3

$$$$
>  <MOLECULE>
Oc1ccccc1/C=N/Nc1nc(N/N=C/c2ccccc2O)nc(N2CCOCC2)n1

>  <growth, %>
34.2

$$$$
>  <MOLECULE>
C/C(=C(/c1ccc(O)cc1)c1ccc(OCCN(C)C)cc1)c1ccc(Cl)cc1

>  <growth, %>
-51.3

$$$$
>  <MOLECULE>
Cc1ccc(-c2csc(N/N=C/c3nc4ccccc4n3C3CC3)n2)cc1

>  <growth, %>
92.2

$$$$
>  <MOLECULE>
COc1ccc2c(c1)oc1c3[nH]c4ccccc4c3c3c(c21)C(=O)N(O)C3=O

>  <growth, %>
38.3

$$$$
>  <MOLECULE>
CC(=O)Oc1ccc(CCN2C(=O)CSC2=S)cc1

>  <growth, %>
107

$$$$
>  <MOLECULE>
N#C/C(=C\c1ccc(N2CCCCC2)cc1)C(=O)Nc1sc2c(c1C#N)CCC2

>  <growth, %>
98.8

$$$$
>  <MOLECULE>
O=C1Nc2ccc(Br)cc2/C1=N\c1nnc(-c2ccc(Cl)cc2)o1

>  <growth, %>
32.5

$$$$
>  <MOLECULE>
COc1ccc2c(ccn2C(=O)N2c3ccccc3Sc3ccccc32)c1

>  <growth, %>
-12.6

$$$$
>  <MOLECULE>
Cc1cc(NS(=O)(=O)c2ccc(-c3cnc(C4CC4)o3)cc2)ccc1I

>  <growth, %>
14.2

$$$$
>  <MOLECULE>
Nc1nc(-c2cccc([N+](=O)[O-])c2)c(N=Nc2ccccc2Cl)s1

>  <growth, %>
87.1

$$$$
>  <MOLECULE>
O=S(=O)(NC1CC2CCC1C2)c1ccc2c(c1)C(=NO)c1cc(S(=O)(=O)NC3CC4CCC3C4)ccc1-2 (stereo unspecified)

>  <growth, %>
22.3

$$$$
>  <MOLECULE>
C/C(=C(/C)C1CC1CCN(C(=O)c1ccc([N+](=O)[O-])cc1)S(=O)(=O)c1ccc(C)cc1)C1CCCCC1 (stereo unspecified)

>  <growth, %>
99.2

$$$$
>  <MOLECULE>
CCCCCCNC(=O)Oc1ccc(/C(=C(\C)c2ccc(OC)cc2)c2ccc(OCCN(C)C)cc2)cc1

>  <growth, %>
15.8

$$$$
>  <MOLECULE>
CN1C(=O)/C(=C/C=C/c2ccco2)SC1=S

>  <growth, %>
90.9

$$$$
>  <MOLECULE>
C#C[C@]1(O)CC[C@H]2[C@@H]3CC=C4c5sc(Nc6nc(C)cc(OC)n6)nc5CC[C@]4(C)[C@H]3CC[C@@]21C

>  <growth, %>
60.8

$$$$
>  <MOLECULE>
CC(=O)Nc1nc2c(s1)C1=CC[C@H]3[C@@H]4CC[C@H](C(C)=O)[C@@]4(C)CC[C@@H]3[C@@]1(C)CC2

>  <growth, %>
27.7

$$$$
>  <MOLECULE>
Cc1nn(-c2ccc(Cl)cc2)c(C)c1N=Nc1ccc2oc(=O)ccc2c1

>  <growth, %>
94.5

$$$$
>  <MOLECULE>
COC[C@@]1(C)CC[C@]2(C)CC[C@]3(C)C(=CC[C@@H]4[C@@]5(C)CCCNC(C)(C)[C@@H]5CC[C@]43C)C2C1 (stereo partly specified)

>  <growth, %>
23.3

$$$$
>  <MOLECULE>
O=C(Nc1cccc(-c2nc(-c3ccc(NC(=O)c4cccs4)cc3Cl)no2)c1)Nc1ccc(NC(=O)C2CC2)c(C(F)(F)F)c1

>  <growth, %>
-11.2

$$$$
>  <MOLECULE>
COc1cc(C2CC(c3ccc(Nc4nc(NCCO)nc(Nc5ccc(Cl)cc5)n4)cc3)=Nc3c(N)nc(N)nc3N2)cc(OC)c1OC (stereo unspecified)

>  <growth, %>
60.9

$$$$
>  <MOLECULE>
Cc1ccccc1/C=C/c1nn2c(-c3ccoc3C)nnc2s1

>  <growth, %>
97.7

$$$$
>  <MOLECULE>
CC1OC(O[C@@H]2C(O)C(CO)OC(O[C@H]3COC(O[C@H]4CC[C@]5(C)[C@H]6CC[C@]78OC[C@@]9(CC[C@](C)(C=O)C[C@H]97)[C@H](O)C[C@@]8(C)[C@]6(C)CC[C@H]5C4(C)C)[C@@H](OC4OC(CO)[C@@H](O)[C@@H](O)[C@@H]4O)[C@@H]3O)[C@H]2OC2OC[C@@H](O)[C@@H](O)[C@@H]2O)[C@@H](O)[C@@H](O)[C@H]1O (stereo partly specified)

>  <growth, %>
6.44

$$$$
>  <MOLECULE>
O=[N+]([O-])c1ccc(-c2nnc(SCc3ccc(O)c4ncccc34)o2)cc1

>  <growth, %>
47.4

$$$$
>  <MOLECULE>
NS(=O)(=O)Oc1ccc2nc(Nc3ccc(F)c(F)c3)ccc2c1

>  <growth, %>
97.3

$$$$
>  <MOLECULE>
CN1CCN(c2ccc3c(C(N)=O)c(NC(=O)c4ccc(C(C)(C)C)cc4)sc3c2)CC1

>  <growth, %>
20.4

$$$$
>  <MOLECULE>
C#CCOc1ccc(/C=N/Nc2nc(-c3cc4cc(Br)cc(Br)c4oc3=O)cs2)cc1

>  <growth, %>
104

$$$$
>  <MOLECULE>
O=C(COc1ccc(C2SCC(=O)N2c2ccccc2)cc1)c1ccccc1 (stereo unspecified)

>  <growth, %>
105

$$$$
>  <MOLECULE>
Cn1cc(-c2nn3cc(-c4cccnc4)nc3s2)c2cc(F)ccc21

>  <growth, %>
67.1

$$$$
>  <MOLECULE>
CC1CCN(S(=O)(=O)c2ncsc2-c2ccccc2)CC1

>  <growth, %>
88.5

$$$$
